target: Replicase polyprotein 1a (Severe acute respiratory syndrome-related coronavirus) (UniProt P0C6U8); experiment: Inhibition of SARS-CoV 3CLpro expressed in Escherichia coli BL21 (DE3) at 100 uM by FRET assay in presence of 0.01% Triton X-100
# reported inhibition; entries follow

Worked examples, 6 compounds total:
{"compound": "CC(C)(C)NC(=O)C(c1cccnc1)N(C(=O)c1ccncc1)c1ccc(C(C)(C)C)cc1 (centres undefined)", "observed value": "> 49%"}
{"compound": "COc1ccccc1C(=O)N(c1ccc(C(C)(C)C)cc1)C(C(=O)NC(C)(C)C)c1cccnc1 (centres undefined)", "observed value": "> 49%"}
{"compound": "CC(C)(C)NC(=O)C(c1cccnc1)N(C(=O)c1cc[nH]n1)c1ccc(C(C)(C)C)cc1 (centres undefined)", "observed value": "56%"}
{"compound": "CC(C)(C)NC(=O)C(c1cccnc1)N(C(=O)CO)c1ccc(C(C)(C)C)cc1 (centres undefined)", "observed value": "> 49%"}
{"compound": "CC(C)(C)NC(=O)C(c1cccnc1)N(C(=O)c1ccc(F)cc1)c1ccc(C(C)(C)C)cc1 (centres undefined)", "observed value": "> 49%"}
{"compound": "CC(C)(C)NC(=O)C(c1cccnc1)N(C(=O)c1ccc(Cl)o1)c1ccc(C(C)(C)C)cc1 (centres undefined)", "observed value": "> 49%"}

Sample COc1ccc(C(=O)N(c2ccc(C(C)(C)C)cc2)C(C(=O)NC(C)(C)C)c2cccnc2)cc1 (centres undefined) — what was its inhibition?
> 49%

Sample CC(C)(C)NC(=O)C(c1cccnc1)N(C(=O)c1ncc[nH]1)c1ccc(C(C)(C)C)cc1 (centres undefined) — what was its inhibition?
49%

Sample CC(C)(C)NC(=O)C(c1cccnc1)N(C(=O)c1ccc(Cl)cc1)c1ccc(C(C)(C)C)cc1 (centres undefined) — what was its inhibition?
> 49%

###

biological target: UniProt:P0C6U8; test: Inhibition of SARS-CoV 3CLpro expressed in Escherichia coli BL21 (DE3) at 100 uM by FRET assay in presence of 0.01% Triton X-100
measured property: inhibition

{"compound": "CC(C)(C)NC(=O)C(c1cn[nH]c1)N(C(=O)c1ccco1)c1ccc(C(C)(C)C)cc1 (centres undefined)", "inhibition": "16%"}
{"compound": "CC(C)(C)NC(=O)C(c1cccnc1)N(C(=O)c1ccccc1O)c1ccc(C(C)(C)C)cc1 (centres undefined)", "inhibition": "> 49%"}
{"compound": "CC(C)(C)NC(=O)C(c1ccsc1)N(C(=O)c1ccco1)c1ccc(C(C)(C)C)cc1 (centres undefined)", "inhibition": "11%"}
{"compound": "CC(C)(C)NC(=O)C(c1cccnc1)N(C(=O)c1cnco1)c1ccc(C(C)(C)C)cc1 (centres undefined)", "inhibition": "> 49%"}
{"compound": "Cc1ccoc1C(=O)N(c1ccc(C(C)(C)C)cc1)C(C(=O)NC(C)(C)C)c1cccnc1 (centres undefined)", "inhibition": "53%"}
{"compound": "CC(C)(C)NC(=O)C(c1ccccn1)N(C(=O)c1ccco1)c1ccc(C(C)(C)C)cc1 (centres undefined)", "inhibition": "< 15%"}

Sample CC(C)(C)NC(=O)C(c1cccnc1)N(C(=O)c1ncccn1)c1ccc(C(C)(C)C)cc1 (centres undefined) — what was its inhibition?
> 49%

Sample CC(C)(C)NC(=O)C(c1c[nH]cn1)N(C(=O)c1ccco1)c1ccc(C(C)(C)C)cc1 (centres undefined) — what was its inhibition?
23%

Sample Cn1cnc(C(=O)N(c2ccc(C(C)(C)C)cc2)C(C(=O)NC(C)(C)C)c2cccnc2)c1 (centres undefined) — what was its inhibition?
> 49%
